- Protocol Notes: Quantitative High-Throughput drug screen in 47 multiple myeloma cell lines against the NCATS MIPE library collection: Delta47_JCRB cell viability assay (AID 1918925; note: nearly all actives have a fitted effect of over 45% in size)
- Experimental Context: Delta47 myeloma viability, CellTiter-Glo ATP, 48 h; series mostly up to 45.8 µM
Results filed as inconclusive are left out. The source made the active and inactive calls. Calls come from the whole dose curve; as a rule, active = well fitted cell-killing curve with a large enough effect; inconclusive = small, poorly fitted or top-dose-only effect, or effect the other way; inactive = no such curve, though single readings can be large or run the other way.
Outcome codes: 1.0 (active), 0.0 (inactive)

# Molecule, Discrete Label
measured = [
    ("O=c1cc(CN2CCOCC2)occ1OCCCCCSc1ccnc2cc(C(F)(F)F)ccc12", 1.0),
    ("Cc1nnc(C(C)C)n1C1C[C@H]2CC[C@@H](C1)N2CC[C@H](NC(=O)C1CCC(F)(F)CC1)c1ccccc1 (some centres not stated)", 1.0),
    ("Cc1nc(N)sc1-c1ccnc(Nc2ccc(N3CCOCC3)cc2)n1", 1.0),
    ("CC=CC(=O)N(CC)c1ccccc1C", 0.0),
    ("O=c1cc(-c2cccc3c2Sc2ccccc2S3)oc(N2CCOCC2)c1", 1.0),
    ("C[C@]12CCC3c4ccc(O)cc4CCC3C1CCC2=O (some centres not stated)", 0.0),
    ("CN(C)Cc1ccc(-c2nc3cccc4c3n2CCNC4=O)cc1", 1.0),
    ("O=C1NC(=O)C(=Cc2ccc3nccnc3c2)S1", 1.0),
    ("COc1cc2ncnc(-n3nc(-c4ccccn4)nc3N)c2cc1OC", 1.0),
    ("CC(C)n1nc(-c2ccc3oc(N)nc3c2)c2c(N)ncnc21", 1.0),
    ("CC(C)[C@H](CO)Nc1nc(Nc2ccc(C(=O)O)c(Cl)c2)c2ncn(C(C)C)c2n1", 1.0),
    ("Oc1ccc(C2CCN(c3ccnc4ccccc34)CC2)cc1O", 1.0),
    ("CO[C@H]1C(=O)[C@]2(C)[C@@H](OC)C[C@H]3OC[C@@]3(OC(C)=O)[C@H]2[C@H](OC(=O)c2ccccc2)[C@]2(O)C[C@H](OC(=O)[C@H](O)[C@@H](NC(=O)OC(C)(C)C)c3ccccc3)C(C)=C1C2(C)C", 0.0),
    ("C=C1C(=O)OC2C=C(C)CCC=C(C)CCC12 (configuration not stated)", 1.0),
    ("CC(C)n1cnc2c(NCCCCCCNC(=O)OC(C)(C)C)nc(NCCO)nc21", 1.0),
    ("O=C(Nc1c(Cl)cncc1Cl)c1ccc(OC(F)F)c(OCC2CC2)c1", 1.0),
    ("CCOC(=O)C1=C(N)Oc2ccc(Br)cc2C1C(C#N)C(=O)OCC (configuration not stated)", 1.0),
    ("N[C@@]1(C(=O)O)CS(=O)(=O)[C@H]2[C@H](C(=O)O)[C@H]21", 1.0),
    ("Cc1ccc([C@@H]2O[C@H](CO)[C@@H](O)[C@H](O)[C@@H]2O)cc1Cc1ccc(-c2ccc(F)cc2)s1", 1.0),
    ("NS(=O)(=O)c1ccc(NC2=CC(=O)c3ccccc3C2=O)cc1", 1.0),
    ("Clc1ccc(CCC(Cn2ccnc2)Sc2c(Cl)cccc2Cl)cc1 (configuration not stated)", 1.0),
    ("COC[C@@H](c1ccc(C(F)(F)F)cc1)N1CCN(C2(C)CCN(C(=O)c3c(C)ncnc3C)CC2)C[C@H]1C", 1.0),
]

----------
- Protocol Notes: Quantitative High-Throughput drug screen in 47 multiple myeloma cell lines against the NCATS MIPE library collection: SKMM1_PLB cell viability assay (AID 1919863); note: potency is the fitted concentration of half-maximal effect; nearly all actives have a fitted effect of over 35% in size
- Experimental Context: SKMM1 myeloma viability, CellTiter-Glo ATP, 48 h
Results filed as inconclusive are left out. Active and inactive are the calls of the source. The call rests on the fitted dose curve; in most records, active means well fitted cell-killing curve with a large enough effect; inconclusive means small, poorly fitted or top-dose-only effect, or effect the other way; inactive means no such curve, though single readings can be large or run the other way.

# Molecular String, Potency
rows = [
    ("CC1(C)CCC2=C(O1)c1ccccc1C(=O)C2=O", "20.9 µM (active)"),
    ("CC1(C)CCC(CN2CCN(c3ccc(C(=O)NS(=O)(=O)c4ccc(NCC5CCOCC5)c([N+](=O)[O-])c4)c(Oc4cnc5[nH]ccc5c4)c3)CC2)=C(c2ccc(Cl)cc2)C1", "20.9 µM (active)"),
    ("CC[C@H]1OC(=O)[C@H](C)[C@@H](O[C@H]2C[C@@](C)(OC)[C@@H](O)[C@H](C)O2)[C@H](C)[C@@H](O[C@@H]2O[C@H](C)C[C@H](N(C)C)[C@@H]2O)[C@](C)(O)C[C@@H](C)CN(C)[C@H](C)[C@@H](O)[C@]1(C)O", "16.6 µM (active)"),
]

----------
- Protocol Notes: Quantitative High-Throughput drug screen in 47 multiple myeloma cell lines against the NCATS MIPE library collection: OCIMY1_PLB cell viability assay (AID 1918979); note: nearly all actives have a fitted effect of over 35% in size; note: potency is the fitted concentration of half-maximal effect;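 for viability: 100% = DMSO-only wells and 0% = cell-free media-only wells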
- Experimental Context: OCI-MY1 myeloma viability, CellTiter-Glo ATP, 48 h; series mostly up to 45.8 µM
Results filed as inconclusive are left out. Active and inactive are the calls of the source. The call rests on the fitted dose curve; in most records, active means well fitted cell-killing curve with a large enough effect; inconclusive means small, poorly fitted or top-dose-only effect, or effect the other way; inactive means no such curve, though single readings can be large or run the other way.
Measured Quantity: Potency

# Compound, Endpoint Value
data = [
    ("COc1ccc(-c2nc(N3CCOCC3)c3sc(CN(C)c4ncc(C(=O)NO)cn4)cc3n2)cn1", "0.0059 µM (active)"),
    ("O=C(O)CCC1CCC(c2cc(F)ccc2F)(S(=O)(=O)c2ccc(Cl)cc2)CC1 (stereo not given)", "inactive"),
    ("CC1(C)CCC(CN2CCN(c3ccc(C(=O)NS(=O)(=O)c4ccc(NCC5CCOCC5)c([N+](=O)[O-])c4)c(Oc4cnc5[nH]ccc5c4)c3)CC2)=C(c2ccc(Cl)cc2)C1", "10.5 µM (active)"),
    ("O=C(CCCCCCC(=O)Nc1ccccc1)NO", "5.9 µM (active)"),
    ("Cc1ccn(-c2ccc(-c3ncco3)cc2)c(=O)c1-c1ccc2nc(N)ncc2c1", "inactive"),
    ("C[C@]12CCC3c4ccc(O)cc4CCC3C1CCC2=O (stereo not given in full)", "inactive"),
    ("N[C@@]1(C(=O)O)CS(=O)(=O)[C@H]2[C@H](C(=O)O)[C@H]21", "inactive"),
    ("CNC(=O)c1ccccc1Sc1ccc2c(C=Cc3ccccn3)n[nH]c2c1", "inactive"),
    ("CC(=O)Nc1ccc([C@H](C)C(=O)Nc2ncc(C(C)C)s2)cc1", "5.9 µM (active)"),
    ("O=C(Nc1cc(Cl)cc2c1[nH]c1cnccc12)c1cccnc1", "inactive"),
]

----------
- Protocol Notes: Quantitative High-Throughput drug screen in 47 multiple myeloma cell lines against the NCATS MIPE library collection: KMS27_JCRB cell viability assay (AID 1918970); note: nearly all actives have a fitted effect of over 30% in size; note: potency is the fitted concentration of half-maximal effect
- Experimental Context: KMS27 myeloma cells, CellTiter-Glo ATP viability, 48 h; series mostly up to 45.8 µM
Records with an inconclusive call do not appear. Active and inactive are the calls of the source. Calls follow the shape of the dose curve; as a rule, active = well fitted cell-killing curve with a large enough effect; inconclusive = small, poorly fitted or top-dose-only effect, or effect the other way; inactive = no such curve, though single readings can be large or run the other way.
Measured Quantity: Potency

# Molecule, Measured Quantity, Endpoint Value
measured = [
    ("CCOC(=O)O[C@]1(C(=O)OCCl)CC[C@@H]2[C@H]3CCC4=CC(=O)C=C[C@]4(C)[C@@H]3[C@@H](O)C[C@@]21C", "Potency", "inactive"),
    ("CC(C)C(=O)Oc1ccc(CO)cc1[C@H](CCN(C(C)C)C(C)C)c1ccccc1", "Potency", "inactive"),
    ("CC(C)C(=O)Nc1ncc(-c2cc(C(F)F)nn2-c2c(Cl)cccc2Cl)s1", "Potency", "14.8 µM (active)"),
    ("CCCCCCCCCCCC1=C(O)C(=O)C=C(O)C1=O", "Potency", "0.187 µM (active)"),
    ("N#Cc1ccc(NC(=O)Nc2ccccc2Br)c2n[nH]nc12", "Potency", "13.2 µM (active)"),
    ("NC(=O)NN=Cc1ccc([N+](=O)[O-])o1", "Potency", "14.8 µM (active)"),
    ("COc1cc2c(cc1OC)CN(CCc1ccc(NC(=O)c3cc(OC)c(OC)cc3NC(=O)c3cnc4ccccc4c3)cc1)CC2", "Potency", "inactive"),
    ("O=C(NC1CCOCC1)c1ccc(-c2cc(-c3cn[nH]c3-c3ccccn3)ccn2)cc1", "Potency", "inactive"),
    ("Cc1ccc([C@@H]2O[C@H](CO)[C@@H](O)[C@H](O)[C@@H]2O)cc1Cc1ccc(-c2ccc(F)cc2)s1", "Potency", "23.5 µM (active)"),
    ("CC[C@@]1(O)C[C@H](O[C@H]2C[C@H](N(C)C)[C@H](O[C@H]3C[C@H](O)[C@H](O[C@H]4CCC(=O)[C@H](C)O4)[C@H](C)O3)[C@H](C)O2)c2c(cc3c(c2O)C(=O)c2c(O)cccc2C3=O)[C@@H]1C(=O)OC", "Potency", "inactive"),
    ("Cc1ccc(F)c(NC(=O)Nc2ccc(-c3cccc4[nH]nc(N)c34)cc2)c1", "Potency", "10.5 µM (active)"),
    ("O=c1ccn([C@@H]2O[C@H](CO)[C@H](O)[C@H]2O)c(=O)[nH]1", "Potency", "inactive"),
    ("c1cc(-c2sc(-c3ccncc3)c(-c3ccncc3)c2-c2ccncc2)ccn1", "Potency", "3.32 µM (active)"),
    ("COc1ccc2c3c1OC1C[C@@H](O)C=C[C@@]31CCN(C)C2 (stereo partly drawn)", "Potency", "inactive"),
    ("CCOC(CN1C(=O)[C@](CC(=O)Nc2ccc(C)cc2)(NC(=O)Nc2ccc(C)cc2)c2ccccc21)OCC", "Potency", "26.4 µM (active)"),
    ("CCn1c(C(=O)N(C2CC2)C2CC2)cc2c3c(ncn3C)c(Nc3cc(C)n(C)n3)nc21", "Potency", "inactive"),
    ("Nc1ncnc2c1nc(Cl)n2[C@@H]1O[C@H](CO)[C@@H](O)[C@@H]1O", "Potency", "20.9 µM (active)"),
    ("O=C1NC(=O)C(=Cc2ccc(-c3ccc(F)cc3)o2)S1", "Potency", "inactive"),
]
